Data origin: patent US8809536B2

- tgt: human alpha2A receptors (Homo sapiens, UniProt P08913)
- Sequence (P08913 whole entry): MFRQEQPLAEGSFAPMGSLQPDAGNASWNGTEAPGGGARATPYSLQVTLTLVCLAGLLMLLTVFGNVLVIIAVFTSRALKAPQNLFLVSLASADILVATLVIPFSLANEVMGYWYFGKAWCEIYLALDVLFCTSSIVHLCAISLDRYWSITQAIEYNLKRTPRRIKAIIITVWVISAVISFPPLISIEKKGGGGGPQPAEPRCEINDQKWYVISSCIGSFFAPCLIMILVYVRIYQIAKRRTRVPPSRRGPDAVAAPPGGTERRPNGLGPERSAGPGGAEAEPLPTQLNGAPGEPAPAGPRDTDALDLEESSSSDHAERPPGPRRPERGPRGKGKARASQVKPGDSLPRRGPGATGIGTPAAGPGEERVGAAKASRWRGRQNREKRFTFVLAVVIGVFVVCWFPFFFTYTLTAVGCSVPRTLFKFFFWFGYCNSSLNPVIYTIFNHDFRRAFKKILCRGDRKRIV
- run description: Determination of alpha2A antagonistic activity in vitro (intracellular calcium, FLIPR Calcium 3 Assay, FLEXstation)
- study conditions: CHO cells stably transfected with human alpha2A receptor and Gα16; stimulated with 100 nM adrenaline or 200 nM noradrenaline
readout label: IC50 (nM)

> print(dat)
                                   molecule  readout.label  unit.text  reported.value
1  c1ccc2c(c1)OCC(CN1CCC3CCCCC3C1)O2 (stereo not drawn)           IC50         nM            1470
2  CC1(COS(C)(=O)=O)CCCN(CC2COc3ccccc3O2)C1 (stereo not drawn)           IC50         nM            2870
3  CC1(COCC(F)(F)F)CCCN(CC2COc3ccccc3O2)C1 (stereo not drawn)           IC50         nM             346
4  C[C@]1(COCC(=O)O)CCCN(C[C@H]2COc3ccccc3O2)C1           IC50         nM            5440
5  C=CCC1(COC)CCCN(CC2COc3ccccc3O2)C1 (stereo not drawn)           IC50         nM             635

a = C[C@]1(C(=O)O)CCCN(C[C@H]2COc3ccccc3O2)C1
b = OCc1cccc(C2CCCN(C[C@H]3COc4ccccc4O3)C2)c1 (stereo in doubt)
# input Which item exceeds the other in IC50, a or b ? Answer by quoting the chosen item's label.
# output a
